- assayed-target: RORγt (Homo sapiens)
- Sequence (P51449 269-508 limits assumed): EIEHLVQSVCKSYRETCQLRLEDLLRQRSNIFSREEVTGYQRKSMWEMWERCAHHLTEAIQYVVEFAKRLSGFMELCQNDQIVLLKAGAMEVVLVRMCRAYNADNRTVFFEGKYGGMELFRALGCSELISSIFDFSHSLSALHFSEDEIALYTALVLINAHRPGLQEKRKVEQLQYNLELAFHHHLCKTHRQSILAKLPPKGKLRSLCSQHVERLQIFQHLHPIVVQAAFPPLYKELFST
This listing pairs molecules with measured IC50.

Entry CCS(=O)(=O)c1ccc(CC(=O)Nc2ccc(C(=O)C(C)(C)c3cncc(Cl)c3)nc2)cc1 ; IC50 = 10 to 50 nM

* * *

- assayed-target: RORγt (Homo sapiens, UniProt P51449)
- Sequence (P51449 269-508 limits assumed): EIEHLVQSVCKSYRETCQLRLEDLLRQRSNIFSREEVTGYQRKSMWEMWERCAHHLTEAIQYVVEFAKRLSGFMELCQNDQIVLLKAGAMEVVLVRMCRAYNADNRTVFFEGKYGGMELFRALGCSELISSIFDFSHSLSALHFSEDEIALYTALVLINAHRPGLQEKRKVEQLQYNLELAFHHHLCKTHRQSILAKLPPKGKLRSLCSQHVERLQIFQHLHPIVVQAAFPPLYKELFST
property-measured: IC50

Field: example entries. Status: answers known.
# compound CCS(=O)(=O)c1ccc(CC(=O)Nc2ccc(C(=O)C3(c4ccc(Cl)cc4)CC(F)(F)C3)nc2)cc1 ; its IC50 = 1 to 10 nM

The value of IC50 measured for the compound CCn1cc(C(C)(C)C(=O)c2ccc(NC(=O)Cc3ccc(S(=O)(=O)CC)cc3)cn2)cn1 turned out to be 10 to 50 nM

Input CCS(=O)(=O)c1ccc(CC(=O)Nc2ccc(C(=O)C(C)(C)c3ccc(Cl)cn3)nc2)cc1 . Output IC50: 1 to 10 nM

# IC50 of CCS(=O)(=O)c1ccc(CC(=O)Nc2ccc(C(=O)C(C)(C)c3cccc(C#N)c3)nc2)cc1 = 1 to 10 nM

Given item CCS(=O)(=O)c1ccc(CC(=O)Nc2ccc(C(=O)C(C)(C)c3ccc(Cl)cc3)cn2)cc1 , the value recorded as its IC50 is 10 to 50 nM

// IC50 value for CCS(=O)(=O)c1ccc(CC(=O)Nc2ccc(C(=O)C(C)(C)c3cccc(F)n3)nc2)cc1 : 1 to 10 nM

Quick note, IC50 for CCS(=O)(=O)c1ccc(CC(=O)Nc2ccc(C(=O)C3(c4ccc(Cl)cc4)CCC3)nc2)cc1 landed at 1 to 10 nM

So, CCS(=O)(=O)c1ccc(CC(=O)Nc2ccc(C(=O)C(C)(C)c3nccs3)nc2)cc1 ? Its IC50 was 10 to 50 nM

New cases:
// sample CCC(C(=O)c1ccc(NC(=O)Cc2ccc(S(=O)(=O)CC)cc2)cn1)c1ccccn1 (stereo not shown) , its IC50 was 10 to 50 nM

Reported IC50 for CCS(=O)(=O)c1ccc(CC(=O)Nc2ccc(C(=O)C(C)(C)c3cccc(Br)c3)nc2)cc1 was 1 to 10 nM

Entry under test: CCS(=O)(=O)c1ccc(CC(=O)Nc2ccc(C(=O)C(C)(C)c3ccc(C(F)(F)F)cc3)nc2)cc1 . Its IC50 was 1 to 10 nM

The compound listed as CCS(=O)(=O)c1ccc(CC(=O)Nc2ccc(C(=O)C(C)(C)c3ccc(F)cn3)nc2)cc1 has a reported IC50 of 10 to 50 nM

For reference, reported IC50 for CCS(=O)(=O)c1ccc(CC(=O)Nc2ccc(C(=O)C(C)(C)c3ccc(Cl)cc3)nc2)cc1 stands at 10 to 50 nM

Quick note, IC50 for CCS(=O)(=O)c1ccc(CC(=O)Nc2ccc(C(=O)C(C)(C)c3ncc(C)cn3)nc2)cc1 landed at 10 to 50 nM

Sure, the documented IC50 for CCS(=O)(=O)c1ccc(CC(=O)Nc2ccc(C(=O)C(C)(C)n3ccc(C)n3)nc2)cc1 is > 1000 nM

Item: CCS(=O)(=O)c1ccc(CC(=O)Nc2ccc(C(=O)C(c3ccccn3)C(C)C)nc2)cc1 (stereo not shown) | IC50: 10 to 50 nM
